Ok so here's the combined literature set: IC50 for Human Factor XIIa (Homo sapiens).

Q: Quick check: IC50 of Nc1nccc2cc(CNC(=O)c3cc(Cl)cnc3NCc3cccc(N4CCCCC4)c3)ccc12 ?
Ans: 10 to 40 µM

Q: Quick check: IC50 of CCCN1CCc2c(nn(C(=O)C3CCNc4ccc(F)cc43)c2N)C1 (stereo not shown) ?
Ans: 0.05 µM

Q: Quick check: IC50 of Nc1nccc2cc(CNC(=O)c3cc(Cl)c(COCCN4CCOCC4)s3)ccc12 ?
Ans: 3 to 10 µM

Q: Quick check: IC50 of Nc1nccc2cc(CNC(=O)c3cnc(OCCN4CCCC4)c(Cl)c3)ccc12 ?
Ans: 10 to 40 µM
